Entries annotated with measured Inhibitory activity (% of control), CDK5/p35(h)
Target: CDK5/p35(h) (Homo sapiens, UniProt Q00535)
Sequence (Q00535 whole entry): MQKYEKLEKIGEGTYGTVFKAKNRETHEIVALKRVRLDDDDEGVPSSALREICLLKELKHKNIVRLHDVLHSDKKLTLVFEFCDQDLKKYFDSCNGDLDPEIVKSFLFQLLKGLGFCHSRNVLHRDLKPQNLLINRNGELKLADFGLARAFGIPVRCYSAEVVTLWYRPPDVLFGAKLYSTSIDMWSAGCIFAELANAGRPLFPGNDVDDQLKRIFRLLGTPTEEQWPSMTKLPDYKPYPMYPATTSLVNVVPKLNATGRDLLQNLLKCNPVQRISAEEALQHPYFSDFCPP
Sequence (Q15078 whole entry partner): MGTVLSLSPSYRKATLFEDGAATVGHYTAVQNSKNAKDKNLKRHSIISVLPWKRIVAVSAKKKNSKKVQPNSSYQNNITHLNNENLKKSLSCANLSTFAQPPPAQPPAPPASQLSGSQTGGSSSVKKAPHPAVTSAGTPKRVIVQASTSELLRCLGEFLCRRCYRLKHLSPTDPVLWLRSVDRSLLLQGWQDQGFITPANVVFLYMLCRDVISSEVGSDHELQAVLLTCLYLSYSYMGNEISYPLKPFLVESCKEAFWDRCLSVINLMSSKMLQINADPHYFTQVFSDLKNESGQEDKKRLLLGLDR
Assay: CDK5/p35(h) kinase assay
Format: biochemical
Conditions: 3 μM; percent of control kinase activity

Query: Value lookup for Inhibitory activity (% of control), CDK5/p35(h); key = COc1ccc2cc(-c3n[nH]c4ccc(-c5n[nH]c(CN6CCOCC6)n5)cc34)ccc2c1
Response: 7 % of control

Query: Quick one: Inhibitory activity (% of control), CDK5/p35(h) of CCN1CCC[C@H]1COc1ccc2cc(-c3n[nH]c4ccc(-c5nc(CC(C)(C)C)n[nH]5)cc34)ccc2c1 ?
Response: 8 % of control
